# Test system: PC-3 prostate
# Assay: NCI tumour cell line growth inhibition, 48 h
Quantity Kind: TGI

Query :: Could you tell me which TGI is on file for Brc1cc(CCOC2CCCCO2)c(-c2sccc2CCOC2CCCCO2)s1 (centres undefined) ?
Result :: > 100 µM

Query :: I would be grateful if you could share the reported TGI for `CCN(CC)/C(Sc1ccccc1)=C(\C(Cl)=C(Cl)Cl)[N+](=O)[O-]` .
Result :: 33.3 µM

Query :: May I ask what TGI has been recorded for O=C1CSC(c2ccc([N+](=O)[O-])cc2)N1c1ccc(-n2c(-c3ccccc3)nc3ccccc3c2=O)cc1 (centres undefined) ?
Result :: > 100 µM

Query :: TGI lookup needed for CCOC(=O)C(NC(=O)c1ccco1)(Nc1nc2ccc(OCC)cc2s1)C(F)(F)F (centres undefined) , thanks.
Result :: 93 µM

Query :: Dear colleague, I am looking for the recorded TGI of the following molecule: Cc1cccc(N(C(=O)Nc2ccc(Cl)c(Cl)c2)C2=NCC(C)S2)c1 (centres undefined)
Result :: > 100 µM

Query :: TGI for `CC[C@@H]1CC[C@@H]2[C@H](CC[C@]3(C)[C@@H](OS(=O)(=O)c4ccc(C)cc4)CC[C@@H]23)[C@H]1COS(=O)(=O)c1ccc(C)cc1` ?
Result :: > 100 µM

Query :: Report TGI for `COc1cc(-c2cc(-c3ccccc3)nc(-c3c(OC)ccc4c(C)cc(=O)oc34)c2)cc(OC)c1OC` please.
Result :: > 100 µM

Query :: // returns reported TGI for input `N#CCCN(CCCN(CCCN(C(=O)Nc1ccccc1)c1ccccc1)C(=O)Nc1ccccc1)C(=O)Nc1ccccc1`
Result :: > 100 µM

Query :: Would you kindly share the measured TGI for CCCNC(=O)CCC(C)C1CCC2C3C(C[C@H](OC(C)=O)[C@]12C)[C@@]1(C)CCC2(C[C@H]1C[C@H]3OC(C)=O)OOC1(CC[C@]3(C)C4C[C@H](OC(C)=O)[C@]5(C)C(C(C)CCC(=O)NCCC)CCC5C4[C@H](OC(C)=O)C[C@@H]3C1)OO2 (some centres undefined) ?
Result :: > 100 µM

Query :: Look up TGI for this molecule: CC(C)C1=CC23CCC4C(C)(C(=O)O)CCCC4(C)C2CC1C1C(=O)N(c2ccccc2N2C(=O)C4C5CC6C7(C)CCCC(C)(C(=O)O)C7CCC6(C=C5C(C)C)C4C2=O)C(=O)C13 (centres undefined)
Result :: 14 µM

Query :: Which TGI reading was recorded for the molecule `CN(C)CCN(C)c1ccc2c(=O)n(CCN(C)C)c(=O)n3c4ccccc4c(=O)c1c23` ?
Result :: 21.3 µM

Query :: Can you look up the measured TGI of `O=c1cc(-c2ccccc2F)[nH]c2ccc(N3CCCC3)cc12` for me?
Result :: > 100 µM

Query :: # TGI lookup, item `O=C(/C=C/c1ccccc1)NNC(=O)c1c(Cl)c(Cl)c(Cl)c(Cl)c1-c1nc2ccccc2[nH]1`
Result :: > 100 µM

Query :: Name the reported TGI value associated with the molecule `COc1cc2c(cc1OCCCCN1C(=O)c3cccc4cccc(c34)C1=O)N=C[C@@H]1CCCN1C2=O`
Result :: > 70.3 µM

Query :: Suppose we examine the molecule `COc1cccc(C2=C(c3c(C)n(C)c4ccccc34)C(=O)NC2=O)c1` ; what TGI value has been reported?
Result :: > 25 µM

Query :: // TGI lookup, key: `CNCCCn1c2c(c3ccc([N+](=O)[O-])cc3c1=O)C(=O)c1cc(OC)cnc1-2`
Result :: 1.88 µM

Query :: # get_value(readout='TGI', item= COC(=O)[C@@]12OC[C@]34[C@H]([C@@H](O)[C@@H]1O)[C@@]1(C)[C@H](O)C(=O)C=C(C)[C@@H]1C[C@H]3OC(=O)C(OC(C)=O)[C@@H]24 (some centres undefined) )
Result :: 0.134 µM

Query :: Which TGI is reported for this molecule? O=c1ccn(C2CC(O)C(CO)O2)c(=O)[nH]1 (centres undefined)
Result :: > 5000 µM

Query :: Recorded TGI for Cc1ccc(N(C(=O)Nc2ccccc2)C2=NCC(C)S2)cc1C (centres undefined) , please?
Result :: > 100 µM

Query :: Please report the recorded TGI for `Cc1ccc(-c2nc(C#N)c(S(=O)(=O)n3nc(C)cc3N)o2)cc1` .
Result :: 29.8 µM

Query :: Bench note: what TGI did `COc1cccc([C@H]2C/C(=N\NC(=O)C(=O)N[C@@H](C)c3ccccc3)c3ccccc3N2)c1` show?
Result :: > 100 µM

Query :: State the recorded TGI for this entry: `COc1ccc(CNC(=O)NCn2cc(-c3ccccc3)nn2)cc1`
Result :: > 100 µM

Query :: Please give the measured TGI for this molecule: `NCCSC(c1ccccc1)c1ccccc1`
Result :: 55.6 µM

Query :: Query: TGI; subject: `CC(=O)C(=Cc1ccc(C=C(C(C)=O)C(C)=O)cc1)C(C)=O`
Result :: 5.17 µM
